Quick reference: GI50 of the listed items.
system: Hs-578T; test: NCI tumour cell line growth inhibition, 48 h
Active and inactive are the calls of the source. No stated cut-off is given here; in the data, active = GI50 up to about 1.1 µM and inactive = higher.

Value of measured GI50 for the entry Cc1ccc(S(=O)(=O)NCc2cccc([N+](=O)[O-])c2)cc1 : > 100 µM (inactive)

###

test system: NCI-H460; assay: NCI tumour cell line growth inhibition, 48 h
The source made the active and inactive calls. Rule as the data show it: active = GI50 up to about 1.1 µM and inactive = higher.
Form entry, call: pick from yes (active), no (inactive)

# count of solved cases: 4
molecule: O=C1NC2=C(CCCC/C2=N\O)C12CCCCC2
assignedCategory: no
--
molecule: Cc1ccc(S(=O)(=O)NCc2cccc([N+](=O)[O-])c2)cc1
assignedCategory: no
--
molecule: CC1C(c2ccc3c(c2)OCO3)c2cc3c(cc2OC1N1CCOCC1)OCO3 (stereo unspecified)
assignedCategory: no
--
molecule: CCOc1ccc(NC(=O)/C(=N\N)C(C(=O)OC)c2nc3ccc(Cl)cc3nc2O)cc1 (stereo unspecified)
assignedCategory: no

Which outcome was entered for the molecule NS(=O)(=O)c1nnc(NS(=O)(=O)c2ccccc2C(=O)O)s1 in this test? no

Which outcome was entered for the molecule O=c1[nH]c(=O)n(C2OC(CO)C(O)C2O)c2ncc(-c3ccc(-c4ccccc4)cc3)nc12 (stereo unspecified) in this test? no

Which outcome was entered for the molecule C[n+]1c2ccccc2n2c3ccccc3c(NCCc3ccccn3)c(C#N)c21 in this test? yes

Which outcome was entered for the molecule COC(=O)C(=O)C(C(=O)C=C(C)C)C(=O)C(=O)Nc1ccc(C)cc1C (stereo unspecified) in this test? no

Which outcome was entered for the molecule CCN(CC)CC[n+]1ccc2c(C)c3[nH]c4ccccc4c3c(C)c2c1 in this test? yes

Which outcome was entered for the molecule CO/C=C(/C(=O)OC)c1ccccc1COc1cccc(C(F)(F)F)c1 in this test? no

Which outcome was entered for the molecule CCOC(OC1=C(C#N)CCC1)C(C)[Se]c1ccccc1 (stereo unspecified) in this test? no

Which outcome was entered for the molecule Cc1ccccc1NC(=O)Cc1csc(N/N=C2\NC(=O)/C(=C/c3cccc([N+](=O)[O-])c3)S2)n1 in this test? no

Which outcome was entered for the molecule COc1cc(C2c3cc4c(cc3OC(N3CCCC3)C2C)OCO4)cc(OC)c1OC (stereo unspecified) in this test? yes

Which outcome was entered for the molecule COc1ccc2c(c1)CCN=C2Cc1cc(OC)c(OC)cc1CCCl in this test? no

Which outcome was entered for the molecule COc1cc(S(=O)(=O)Nc2nc(-c3ccc(/N=C/c4ccccc4O)cc3)cs2)ccc1Cl in this test? no

Which outcome was entered for the molecule O=C1C=C(N2CCN(c3ncccn3)CC2)C(=O)c2c(O)ccc(O)c21 in this test? no

Which outcome was entered for the molecule CCCCCC(=O)CCCCCCCC(O)CC(=O)OCC (stereo unspecified) in this test? no

Which outcome was entered for the molecule CCOC(=O)C(Cc1ccccc1)NC(=O)OC(C)(C)C (stereo unspecified) in this test? no

Which outcome was entered for the molecule O=[N+]([O-])C(C(Cl)=C(Cl)Cl)=C(n1cncn1)n1cncn1 in this test? no

Which outcome was entered for the molecule O=c1[nH]c(C2CCCCC2)nc2c(Cl)cccc12 in this test? no

Which outcome was entered for the molecule CN1CCN(C(=S)N(C)C(=O)c2cccs2)CC1 in this test? no

Which outcome was entered for the molecule Cc1cc(N(CCC#N)CCC#N)ccc1C(/N=N/c1ccc(C(=O)O)cc1)=N\NC(=O)c1ccccc1 in this test? no

###

system: SNB-19; assay: NCI tumour cell line growth inhibition, 48 h
Activity calls are given as the source filed them. Cut-off read from the data, not from the text of the source: active = GI50 up to about 1.1 µM and inactive = higher.
Quick reference: GI50 of the listed items.

Below, each entry is followed by its recorded GI50 result.
compound: CC(C)c1ccc2c(c1)/C(=C1/Nc3ccccc3C1=O)C(=O)N2
GI50: 13 µM (inactive)

compound: Cc1ccc(-n2c(=S)[nH]c3ccc(Br)cc3c2=O)cc1
GI50: > 100 µM (inactive)

compound: Cc1[nH]c2ccccc2c1C1=CC(=O)N(c2ccccc2)C1=O
GI50: 22.1 µM (inactive)

compound: C=C1CC(C/C=C(\C)CC2CC(=C)C(=O)O2)OC1=O (centres undefined)
GI50: > 100 µM (inactive)

compound: O=[N+]([O-])c1ccc(C2Nn3c(nnc3-c3cccc([N+](=O)[O-])c3)S2)cc1 (centres undefined)
GI50: > 100 µM (inactive)

compound: N#CC(NCCc1ccccc1)c1ccccc1 (centres undefined)
GI50: > 100 µM (inactive)

compound: N#CCCN(CCC#N)c1ccc(/C=C2\SC(=S)NC2=O)cc1Br
GI50: 23.8 µM (inactive)

compound: CC(C)/C=N\N1C(N)=C(C#N)C(C#N)(C#N)C1C(C)C (centres undefined)
GI50: > 100 µM (inactive)

compound: CN(C)CCNc1ccc2c(=O)n(CCN(C)C)c(=O)n3c4ccc(O)cc4c(=O)c1c23
GI50: < 0.0212 µM (active)

compound: COc1ccc(-c2cc(-c3cc(OC)c(OC)c(OC)c3)cc(-c3cc4ccccc4oc3=O)n2)cc1
GI50: 10.2 µM (inactive)

Value of measured GI50 for the entry O=C1Cc2c([nH]c3ccc(C(=O)O)cc23)-c2ccccc2N1 : > 100 µM (inactive)

Value of measured GI50 for the entry CN/N=C(\C)C(CN(C)C)C(c1ccccc1)c1c(O)c2ccccc2oc1=O (centres undefined) : > 100 µM (inactive)

Value of measured GI50 for the entry COc1ccc2[nH]cc(CCNC(=O)[C@H](Cc3ccc(O)cc3)NC(=O)[C@@H](NCC(F)(F)F)C(C)C)c2c1 : > 100 µM (inactive)

Value of measured GI50 for the entry C[n+]1c2ccccc2n2c3ccccc3c(NCCc3ccccn3)c(C#N)c21 : 3.33 µM (inactive)

Value of measured GI50 for the entry NC1=Nc2ccccc2Sc2cccc(F)c21 : > 100 µM (inactive)

Value of measured GI50 for the entry O=C(CC(C(=O)c1cccs1)c1ccc2c(c1)OCO2)c1ccc(Br)cc1 (centres undefined) : 8.51 µM (inactive)

Value of measured GI50 for the entry [O-]/[N+](=N\c1ccccc1CO)c1ccccc1CO : > 100 µM (inactive)

Value of measured GI50 for the entry Cc1ccc2nc3n(c2c1)C(c1c(F)cccc1F)SC3 (centres undefined) : > 100 µM (inactive)

Value of measured GI50 for the entry COc1cc(OC)cc(N(C)Cc2cnc3nc(N)nc(N)c3c2C)c1 : 12.9 µM (inactive)

Value of measured GI50 for the entry O=C1ON(Cc2ccccc2)C(c2ccccc2)N1c1ccccc1 (centres undefined) : > 100 µM (inactive)

Value of measured GI50 for the entry Nc1nc2c(N)cc(C(F)(F)F)cc2nc1-c1ccccc1 : > 100 µM (inactive)

###

test system: BT-549; assay: NCI tumour cell line growth inhibition, 48 h
Active and inactive are the calls of the source. Cut-off read from the data, not from the text of the source: active = GI50 up to about 1.1 µM and inactive = higher.
measuredAttribute: GI50

Below, each entry is followed by its recorded GI50 result.
molecularString: Cc1ccc(/N=N/c2c(O)ccc3ccccc23)c(C)c1
GI50: > 100 µM (inactive)
--
molecularString: Clc1nc(NCCc2ccccc2)c2ncn(-c3ccccc3)c2n1
GI50: 23.1 µM (inactive)

Attention now turns to another entry.
Value of measured GI50 for the entry CC(=O)C(C(=O)C(C)(C)C)C(=O)C(C)(C)C : > 100 µM (inactive)

###

tested on: RXF 393; assay: NCI tumour cell line growth inhibition, 48 h
The source made the active and inactive calls. Cut-off read from the data, not from the text of the source: active = GI50 up to about 1.1 µM and inactive = higher.
Form entry, call: pick from active, inactive

# count of solved cases: 3
compound: Cc1cc2c(c(C(=O)NCC(=O)O)c1)Oc1c(cc(C)cc1C(=O)NCC(=O)O)S2
assignedCategory: inactive
//
compound: Cc1ccc(NC(=O)CSc2nc(O)nc3[nH]cnc23)cc1
assignedCategory: inactive
//
compound: NC1=Nc2ccccc2Sc2cccc(F)c21
assignedCategory: inactive

Which outcome was entered for the compound C=C(C)C1CC2=C(O1)C(=O)c1cccc(O)c1C2=O (configuration not stated) in this test? active

Which outcome was entered for the compound C=C(C)[C@@H]1CCC2=C[C@H](CC(C)=CC3=CC(C)=C(O3)[C@@H]1OC)OC2=O in this test? inactive

Which outcome was entered for the compound CC(NNC(=O)c1ccc[n+]([BH2-]C#N)c1)c1ccccc1 (configuration not stated) in this test? inactive

Which outcome was entered for the compound CC(C)/C=N\N1C(N)=C(C#N)C(C#N)(C#N)C1C(C)C (configuration not stated) in this test? inactive

Which outcome was entered for the compound CCN(CC)CCCn1c(=O)c2ccccc2n2c3c(=O)n(C)c(=O)n(C)c3nc12 in this test? inactive

###

system: CAKI-1; assay: NCI tumour cell line growth inhibition, 48 h
The source made the active and inactive calls. Rule as the data show it: active = GI50 up to about 1.1 µM and inactive = higher.
measuredAttribute: GI50

Below, each entry is followed by its recorded GI50 result.
molecule: O=C1Cc2c([nH]c3ccc(C(=O)O)cc23)-c2ccccc2N1
GI50: > 100 µM (inactive)
//
molecule: O=[N+]([O-])c1ccc(C2Nn3c(nnc3-c3cccc([N+](=O)[O-])c3)S2)cc1 (stereo not drawn)
GI50: > 100 µM (inactive)
//
molecule: Cc1ccc(-c2cc(-c3ccco3)c(C#N)c(=S)[nH]2)cc1
GI50: > 100 µM (inactive)
//
molecule: Cc1cc(C)n(C(C)(C(=O)Cc2ccccc2)n2nc(C)cc2C)n1
GI50: > 100 µM (inactive)
//
molecule: O=Cc1cc2c(o1)C(=O)c1ccccc1C2=O
GI50: 2.84 µM (inactive)

Value of measured GI50 for the entry CC(NNC(=O)c1ccc[n+]([BH2-]C#N)c1)c1ccccc1 (stereo not drawn) : > 100 µM (inactive)

Value of measured GI50 for the entry OCC(CO)C1c2cccc3ccc4cccc1c4c23 : > 100 µM (inactive)

Value of measured GI50 for the entry CCN1CCC(O)(/C=C/c2cccc(C)c2)C(C(=O)/C=C/c2cccc(C)c2)C1 (stereo not drawn) : 2 µM (inactive)

Value of measured GI50 for the entry COC1=CC23CCCN2CCc2cc4c(cc2C3C1O)OCO4 (stereo not drawn) : 31.4 µM (inactive)

Value of measured GI50 for the entry COc1c(OC)c(OC)c(C(=O)/C=C/c2ccccc2)c(OC)c1OC : 13.9 µM (inactive)

Value of measured GI50 for the entry CC(C)c1ccc2c(c1)/C(=C1/Nc3ccccc3C1=O)C(=O)N2 : 14.3 µM (inactive)

Value of measured GI50 for the entry N#Cc1nc(-c2ccsc2)oc1N : > 100 µM (inactive)

Value of measured GI50 for the entry CN(C)CCn1c(=O)nc2c3c(c([N+](=O)[O-])ccc31)Nc1ccc(O)cc1-2 : 5.53 µM (inactive)
